FYI, the data here is from the supplement of paper PMC7877785.

Test description: self-splicing fitness, log relative to wild type (ln ratio); higher = more splicing; Tetrahymena group I intron in knt gene, E. coli kanamycin selection, DiMSum; sequences stand for … in CUCUCU…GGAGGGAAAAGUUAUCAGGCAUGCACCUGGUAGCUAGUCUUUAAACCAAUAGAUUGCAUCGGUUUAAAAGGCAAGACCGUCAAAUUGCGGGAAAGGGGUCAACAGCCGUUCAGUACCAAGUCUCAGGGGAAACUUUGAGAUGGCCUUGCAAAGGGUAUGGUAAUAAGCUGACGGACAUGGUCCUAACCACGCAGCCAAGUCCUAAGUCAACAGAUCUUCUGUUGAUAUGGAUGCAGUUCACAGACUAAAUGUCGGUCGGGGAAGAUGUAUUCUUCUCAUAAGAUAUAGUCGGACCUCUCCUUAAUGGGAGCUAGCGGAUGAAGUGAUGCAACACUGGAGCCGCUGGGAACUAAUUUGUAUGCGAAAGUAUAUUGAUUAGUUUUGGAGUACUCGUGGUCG;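 further: selection with 25 µg/mL kanamycin versus none on LB agar overnight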
Condition: 37 °C
Decision: self-splicing fitness (ln) >= -1 yields 1 (yes), all other cases yield 0 (no).

GACUAGCAAUAUUACGGGCG	1 (yes)
AACCAGCAAUAUUACGUUAU	1 (yes)
CCUUAGCAAUAUUACGUACG	0 (no)
UGAAAGCAAUAUUACGGAGU	0 (no)
UCCAAGCAAUAUUACGUUAA	1 (yes)
GACGAGCAAUAUUACGCAAA	0 (no)
GGGUAGCAAUAUUACGGCUA	0 (no)
CAUAAGCAAUAUUACGGUCU	0 (no)
UCGGAGCAAUAUUACGUUCU	0 (no)
CUAGAGCAAUAUUACGCAAA	0 (no)
CGUUAGCAAUAUUACGCGUU	0 (no)
ACGAAGCAAUAUUACGAUAC	0 (no)
CACAAGCAAUAUUACGUUUU	0 (no)
CGACAGCAAUAUUACGUCUU	1 (yes)
ACGAAGCAAUAUUACGGUUU	0 (no)
UUUUAGCAAUAUUACGGGCG	1 (yes)

###

Test description: self-splicing fitness, log relative to wild type (ln ratio); higher = more splicing; Tetrahymena group I intron in knt gene, E. coli kanamycin selection, DiMSum; sequences stand for … in CUCUCU…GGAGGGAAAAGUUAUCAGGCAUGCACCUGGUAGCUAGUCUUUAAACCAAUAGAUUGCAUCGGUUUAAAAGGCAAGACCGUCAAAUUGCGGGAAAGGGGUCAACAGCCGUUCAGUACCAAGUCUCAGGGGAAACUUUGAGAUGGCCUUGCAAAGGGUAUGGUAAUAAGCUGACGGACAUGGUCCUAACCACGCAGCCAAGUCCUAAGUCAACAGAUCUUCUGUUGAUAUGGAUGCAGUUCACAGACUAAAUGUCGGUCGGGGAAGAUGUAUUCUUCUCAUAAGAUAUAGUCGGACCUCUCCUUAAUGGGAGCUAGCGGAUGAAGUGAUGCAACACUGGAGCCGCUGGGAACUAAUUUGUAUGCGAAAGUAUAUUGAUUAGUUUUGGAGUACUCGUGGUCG
Condition: 37 °C
Below, each entry is listed alongside its reported self-splicing fitness (ln).
Readout kind: self-splicing fitness (ln)

CGUCAGCAAUAUUACGUGCG	-2.21
GUAAAGCAAUAUUACGGUCA	0.362
AGGGAGCAAUAUUACGAAUC	-2.43
CAGGAGCAAUAUUACGGGAU	-2.28
UUGGAGCAAUAUUACGACUU	-0.866
AUAAAGCAAUAUUACGCAGG	-0.913
AAAGAGCAAUAUUACGUGAC	-2.62
UCCUAGCAAUAUUACGCGGU	-1.63
AAGGAGCAAUAUUACGACGU	-0.122
AUACAGCAAUAUUACGCAGG	-0.332
UUCAAGCAAUAUUACGCAUG	-1.7
CGCCAGCAAUAUUACGCUUU	-1.13
GUUAAGCAAUAUUACGUAGC	-1.86
CAUAAGCAAUAUUACGGUAA	-2.77
GUUAAGCAAUAUUACGGCAA	-0.394
CGUUAGCAAUAUUACGCGUA	-0.996
AAUGAGCAAUAUUACGUACU	-0.978
AAAGAGCAAUAUUACGUCUC	-1.47
CCUCAGCAAUAUUACGUUGU	-2.52
CCUGAGCAAUAUUACGCAGG	-3.36
AGGAAGCAAUAUUACGUGCC	-0.175
AGGGAGCAAUAUUACGACAU	-2.17
GUAUAGCAAUAUUACGGGCG	-0.207
UACGAGCAAUAUUACGCAGA	-2.33
CCCGAGCAAUAUUACGGUCC	-2.61
CAACAGCAAUAUUACGUCUA	-0.786
CUCCAGCAAUAUUACGCGAC	-2.31
GAUCAGCAAUAUUACGCCAG	-1.93
CCGCAGCAAUAUUACGAGGC	-2.65
ACACAGCAAUAUUACGGAAG	-1.12
ACGGAGCAAUAUUACGUUUU	-3.08
GCCAAGCAAUAUUACGAUGA	-1.66
CAGGAGCAAUAUUACGGUCG	0.544
CAUAAGCAAUAUUACGGGGC	-1.22

###

Recorded self-splicing fitness (ln) values for a group of sequences are listed next.
Test description: self-splicing fitness, log relative to wild type (ln ratio); higher = more splicing; Tetrahymena group I intron in knt gene, E. coli kanamycin selection, DiMSum; sequences stand for … in CUCUCU…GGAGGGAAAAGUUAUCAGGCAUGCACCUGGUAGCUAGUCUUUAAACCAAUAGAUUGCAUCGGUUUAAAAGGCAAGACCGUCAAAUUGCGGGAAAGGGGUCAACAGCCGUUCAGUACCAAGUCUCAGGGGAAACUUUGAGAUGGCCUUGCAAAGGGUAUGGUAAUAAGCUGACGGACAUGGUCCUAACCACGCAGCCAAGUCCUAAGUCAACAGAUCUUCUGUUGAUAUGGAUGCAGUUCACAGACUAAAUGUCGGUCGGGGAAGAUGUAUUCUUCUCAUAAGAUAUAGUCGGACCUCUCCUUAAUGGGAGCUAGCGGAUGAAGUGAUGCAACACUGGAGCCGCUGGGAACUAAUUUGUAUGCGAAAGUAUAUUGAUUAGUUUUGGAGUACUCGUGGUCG
Condition: 30 °C
Readout kind: self-splicing fitness (ln)

CUUUAGCAAUAUUACGGGUG	-0.377
CUACAGCAAUAUUACGGAAC	-4.6
UGCCAGCAAUAUUACGACCA	0.429
GGACAGCAAUAUUACGGAUA	-1.13
GUUGAGCAAUAUUACGGACU	-3.15
GUGUAGCAAUAUUACGAAGU	-2.86
UAAUAGCAAUAUUACGGUUC	-2.91
AAUCAGCAAUAUUACGGUAC	-0.714
CCCCAGCAAUAUUACGACUG	-3.32
ACCAAGCAAUAUUACGAUAC	-2.83
AGCUAGCAAUAUUACGGGCC	-3.59
GCGUAGCAAUAUUACGGAGG	-3.61
CCACAGCAAUAUUACGGCAC	-4.06
UGGAAGCAAUAUUACGGGAA	-2.15
GACGAGCAAUAUUACGGCCG	-2.02
AACGAGCAAUAUUACGCGCG	-1.81

###

self-splicing fitness (ln) listing for selected sequences.
Test description: self-splicing fitness, log relative to wild type (ln ratio); higher = more splicing; Tetrahymena group I intron in knt gene, E. coli kanamycin selection, DiMSum; sequences stand for … in CUCUCU…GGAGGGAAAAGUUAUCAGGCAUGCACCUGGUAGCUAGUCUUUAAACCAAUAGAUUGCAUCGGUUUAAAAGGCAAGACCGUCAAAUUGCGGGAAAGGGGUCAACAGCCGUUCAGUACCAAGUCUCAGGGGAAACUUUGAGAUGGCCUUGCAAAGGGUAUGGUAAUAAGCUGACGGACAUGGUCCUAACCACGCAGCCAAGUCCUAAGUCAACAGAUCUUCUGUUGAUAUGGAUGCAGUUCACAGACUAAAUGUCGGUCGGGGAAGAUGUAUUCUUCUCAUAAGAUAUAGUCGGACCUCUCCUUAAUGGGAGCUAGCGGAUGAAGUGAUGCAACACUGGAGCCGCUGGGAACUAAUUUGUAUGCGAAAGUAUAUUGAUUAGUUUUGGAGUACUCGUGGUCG
Condition: 37 °C
Readout kind: self-splicing fitness (ln)

UUCAAGCAAUAUUACGUCUU	-3.54
AUACAGCAAUAUUACGGGAA	-1.51
AAUGAGCAAUAUUACGUAAG	-2.2
CAGAAGCAAUAUUACGAGGU	-3
AGCCAGCAAUAUUACGUGUG	-1.61
UUGAAGCAAUAUUACGACGA	0.04
GGGGAGCAAUAUUACGGGCA	-1.47
CGUAAGCAAUAUUACGACCU	-0.549
AGAAAGCAAUAUUACGUGCA	-0.292
CCGCAGCAAUAUUACGUUAU	-2.77
GACGAGCAAUAUUACGGCGC	-0.8
GCCCAGCAAUAUUACGGUCG	-1.31
UACUAGCAAUAUUACGAAAU	-3.34
CAACAGCAAUAUUACGAACC	-1.62
CCCGAGCAAUAUUACGAGUG	-1.99
AGCAAGCAAUAUUACGAUGC	-1.71
CGCCAGCAAUAUUACGCACA	-1.65
UCCGAGCAAUAUUACGUAUA	-2.54
CCUCAGCAAUAUUACGGUUG	-0.828
AGGCAGCAAUAUUACGUCCA	0.0124
GGGAAGCAAUAUUACGAUUC	-0.851
CCUCAGCAAUAUUACGGUUA	-3.26
UAGCAGCAAUAUUACGUAAU	-0.695
UCCCAGCAAUAUUACGUCAU	-2.09
ACAGAGCAAUAUUACGGCGC	-0.0642
UUUAAGCAAUAUUACGCACA	0.181
CGCCAGCAAUAUUACGAAAG	0.0641
CGGUAGCAAUAUUACGCCAU	-2.46
GUUCAGCAAUAUUACGAGCG	-1.31
CGUGAGCAAUAUUACGUGGC	-3.16
CGCCAGCAAUAUUACGGGAG	-1.38
GAGAAGCAAUAUUACGUCUA	0.35
GGCGAGCAAUAUUACGGGAG	-1.33
CCCUAGCAAUAUUACGAUGU	-2.55
